For each entry below, report its Cell AVRG (average KD, hGARP and hLRRC33 complexes) value.
Target: Cell-associated proTGFβ1 complexes (hGARP-proTGFβ1 and hLRRC33-proTGFβ1)
Assay: BLI (Octet)
Numbers only, in nM.

Study these solved cases before continuing.
INSERT INTO measurements (binder, units_label, val) VALUES
  ('Ab31 (antibody, IgG4, V domains shown) VH: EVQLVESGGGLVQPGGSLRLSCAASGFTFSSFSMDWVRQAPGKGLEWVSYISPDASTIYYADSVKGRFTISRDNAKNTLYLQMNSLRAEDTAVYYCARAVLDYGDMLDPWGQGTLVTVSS VL: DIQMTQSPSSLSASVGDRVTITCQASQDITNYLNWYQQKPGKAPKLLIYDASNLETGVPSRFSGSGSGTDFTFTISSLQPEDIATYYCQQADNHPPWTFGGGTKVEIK', 'nM', 0.495),
  ('Ab26 (antibody, IgG4, V domains shown) VH: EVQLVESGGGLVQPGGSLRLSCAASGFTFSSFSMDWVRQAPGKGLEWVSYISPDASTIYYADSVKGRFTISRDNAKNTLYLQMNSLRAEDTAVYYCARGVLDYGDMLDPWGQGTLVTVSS VL: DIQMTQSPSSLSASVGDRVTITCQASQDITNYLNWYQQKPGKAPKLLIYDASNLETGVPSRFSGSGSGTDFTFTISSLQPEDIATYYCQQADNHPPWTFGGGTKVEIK', 'nM', 0.492),
  ('Ab21 (antibody, V domains shown) VH: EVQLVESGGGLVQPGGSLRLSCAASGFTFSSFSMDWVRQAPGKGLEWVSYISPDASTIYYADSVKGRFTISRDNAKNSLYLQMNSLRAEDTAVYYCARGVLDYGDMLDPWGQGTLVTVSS VL: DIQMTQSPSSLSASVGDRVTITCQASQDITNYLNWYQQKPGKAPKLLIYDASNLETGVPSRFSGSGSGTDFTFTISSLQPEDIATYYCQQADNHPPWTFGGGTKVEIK', 'nM', 0.644);

Hi team, please reply with Cell AVRG (average KD, hGARP and hLRRC33 complexes) for each item in this list.
1. Ab24 (antibody, IgG4, V domains shown) VH: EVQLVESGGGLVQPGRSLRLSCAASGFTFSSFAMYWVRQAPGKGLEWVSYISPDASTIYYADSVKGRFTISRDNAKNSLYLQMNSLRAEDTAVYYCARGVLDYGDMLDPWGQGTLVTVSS VL: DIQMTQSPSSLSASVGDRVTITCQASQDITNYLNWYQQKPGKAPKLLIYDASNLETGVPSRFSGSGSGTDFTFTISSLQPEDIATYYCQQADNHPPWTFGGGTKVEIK
2. Ab27 (antibody, V domains shown) VH: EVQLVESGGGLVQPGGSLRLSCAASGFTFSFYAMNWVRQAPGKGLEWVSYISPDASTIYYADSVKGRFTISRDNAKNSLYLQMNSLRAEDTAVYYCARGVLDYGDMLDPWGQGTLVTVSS VL: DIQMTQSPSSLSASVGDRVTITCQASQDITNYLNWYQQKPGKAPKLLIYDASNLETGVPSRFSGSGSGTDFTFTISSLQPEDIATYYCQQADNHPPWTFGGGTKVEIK
3. Ab33 (antibody, IgG4, V domains shown) VH: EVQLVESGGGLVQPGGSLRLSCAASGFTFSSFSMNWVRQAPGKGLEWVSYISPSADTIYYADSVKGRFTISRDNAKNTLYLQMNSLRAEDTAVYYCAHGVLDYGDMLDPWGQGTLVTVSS VL: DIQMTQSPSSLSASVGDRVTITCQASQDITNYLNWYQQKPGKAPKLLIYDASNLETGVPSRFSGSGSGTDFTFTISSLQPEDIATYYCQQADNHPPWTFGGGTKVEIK
4. Ab30 (antibody, IgG4, V domains shown) VH: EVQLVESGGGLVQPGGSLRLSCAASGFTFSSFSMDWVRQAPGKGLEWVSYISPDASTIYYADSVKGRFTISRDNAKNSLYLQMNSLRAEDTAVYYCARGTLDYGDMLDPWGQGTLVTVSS VL: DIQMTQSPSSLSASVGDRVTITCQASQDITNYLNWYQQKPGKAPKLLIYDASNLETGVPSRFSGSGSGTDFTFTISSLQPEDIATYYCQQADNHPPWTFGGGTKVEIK
5. Ab25 (antibody, V domains shown) VH: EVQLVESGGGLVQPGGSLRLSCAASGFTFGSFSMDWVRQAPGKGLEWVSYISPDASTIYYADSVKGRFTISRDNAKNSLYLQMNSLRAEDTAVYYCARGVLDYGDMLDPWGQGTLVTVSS VL: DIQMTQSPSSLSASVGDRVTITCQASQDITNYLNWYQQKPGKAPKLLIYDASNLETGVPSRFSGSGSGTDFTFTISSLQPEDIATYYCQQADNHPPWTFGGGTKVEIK
6. Ab22 (antibody, IgG4, V domains shown) VH: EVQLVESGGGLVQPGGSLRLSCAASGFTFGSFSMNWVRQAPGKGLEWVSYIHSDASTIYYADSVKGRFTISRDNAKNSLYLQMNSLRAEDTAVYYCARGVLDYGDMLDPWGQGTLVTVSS VL: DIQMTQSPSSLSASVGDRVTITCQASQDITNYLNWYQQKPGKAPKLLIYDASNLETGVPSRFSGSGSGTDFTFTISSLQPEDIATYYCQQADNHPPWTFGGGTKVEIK

0.537
0.361
0.302
0.684
0.449
0.695

Can you share its Cell AVRG (average KD, hGARP and hLRRC33 complexes)? I mean this binder: Ab23 (antibody, V domains shown) VH: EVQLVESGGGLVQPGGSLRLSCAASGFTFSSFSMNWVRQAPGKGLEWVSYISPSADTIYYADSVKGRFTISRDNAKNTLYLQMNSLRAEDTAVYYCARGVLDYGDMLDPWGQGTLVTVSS VL: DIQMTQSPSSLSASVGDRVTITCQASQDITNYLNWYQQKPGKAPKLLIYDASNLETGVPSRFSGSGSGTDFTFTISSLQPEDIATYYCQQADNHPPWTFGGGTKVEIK
0.897

Values compiled from patent US20250282857A1.
